Tested on: MIWI (PIWIL1) piRISC loaded with piRNA #2 (30 nt);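 also: 1 nM active piRISC with 0.1 nM target library at 33 °C single turnover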
Assay: pre-steady-state target cleavage rate (min^-1); MIWI and MILI are mouse PIWI proteins and EfPiwi is from a freshwater sponge; tags in brackets are library labels; higher = faster piRNA-guided slicing of the target;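 also: 1 nM active piRISC with 0.1 nM target library at 33 °C single turnover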
Details: guide: piRNA #2 5'p-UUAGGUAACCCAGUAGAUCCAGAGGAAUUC; auxiliary factor: 500 nM mouse GTSF1
In all, about 5,500 sequences were measured (“pre-steady-state target cleavage rate”: median about 0.1, highest 2% from about 0.64 on). This is one part of a sample in which the highest values are shown more often than they occur.
Record 1 (yes) whenever pre-steady-state target cleavage rate is at 0.4 or higher; record 0 (no) when lower.

# residue string, assigned class
data = [
    ("CUUAAGGACUGGAUCUACUAGGUUACCUAA", "0 (no)"),
    ("CUUAAGGAGUGGAUCAACUGGGUUACGUAA", "0 (no)"),
    ("GAAUUCCUCUCGUUCUACUGGGUUACCUAA", "1 (yes)"),
    ("GAAUUGCUCAGGAUCUACUGGGUUACCUAA", "0 (no)"),
    ("GAAUUCCUCUCCUUCUACUGGGUUACCUAA", "1 (yes)"),
    ("CAAUUCCUCUGCUUCUACUGGGUUACCUAA", "1 (yes)"),
    ("CUUUUCCUCAGGAUCUACUGGGUUACCUAA", "1 (yes)"),
    ("GAAUUCCUCUGGAUCUAGUGGGUUUCCUAA", "0 (no)"),
    ("CUUAUCCUGACGAUCUACUGGGUUACCUAA", "0 (no)"),
    ("CUAAUCCUCUGGAUCAACUGGGUUACCUAA", "0 (no)"),
    ("CUUAAGGACUGGAUCUACUGGGUUACCAUAA", "0 (no)"),
    ("GAAUUCCUGUGGAUCUACUGCGUUACCUAA", "0 (no)"),
    ("CAAUUCCUCUCGUUCUACUGGGUUACCUAA", "1 (yes)"),
    ("CUUAUCGUCUGGAUCUACUGGGUUACCUUA", "0 (no)"),
    ("CUUAAGGUCUGGAUCAACUGGGUUACGUAA", "0 (no)"),
    ("CUUUUCCUCACGAUCUACUGGGUUACCUAA", "1 (yes)"),
    ("CAAUUCCACUGGUUCUACUGGGUUACCUAA", "1 (yes)"),
    ("CUUUUCCUCUGGAUCUACGGGUUACCUAA", "0 (no)"),
    ("CAAUUGCUCUGGAUCUACUGGGUUACGUAA", "1 (yes)"),
    ("CUUAUCCUCUGGAUCUACUCCGUUACCUAA", "0 (no)"),
    ("GAAUUCCUCACCAUCUACUGGGUUACCUAA", "1 (yes)"),
    ("CAAUUCCUCUGGAUCCUACUGGGUUACCUAA", "0 (no)"),
    ("CUAUUCCUCCUGGAUCUACUGGGUUACCUAA", "1 (yes)"),
    ("GAAUUCCUCUGGAUUCUACUGGGUUACCUAA", "0 (no)"),
]

Numbers sourced from the supplement of paper PMC10338343.
